Assay: Plasma levels of lasofoxifene after a single oral dose in healthy postmenopausal women (LC-MS-MS)
Format: in vivo, human
Conditions: female, human, plasma; single oral 10 mg dose, healthy post menopausal women, 8 hours after dosing; read-out: Mean plasma concentration, na Lasofoxifene per ml plasma
measure.name: concentration at 8 h

Return reported concentration at 8 h; argument: `Oc1ccc2c(c1)CC[C@H](c1ccccc1)[C@@H]2c1ccc(OCCN2CCCC2)cc1`
10.4 ng/mL

====

Assay: Plasma levels of lasofoxifene after a single oral dose in healthy postmenopausal women (LC-MS-MS)
Type: in vivo, human
Details: female, human, plasma; single oral dose 0.8 mg, healthy post menopausal women, 24 hours after dosing; read-out: Mean plasma concentration, ng Lasofoxifene per ml plasma
measure.name: concentration at 24 h (ng/mL)
Number in ng/mL, nothing else.

Return reported concentration at 24 h; argument: `Oc1ccc2c(c1)CC[C@H](c1ccccc1)[C@@H]2c1ccc(OCCN2CCCC2)cc1`
0.64

====

Experiment: Plasma levels of lasofoxifene after a single oral dose in healthy postmenopausal women (LC-MS-MS)
Assay type: in vivo, human
Settings: female, human, plasma; single oral 10 mg dose, healthy post menopausal women, 1 hour after dosing; read-out: Mean plasma concentration, na Lasofoxifene per ml plasma
measure.name: concentration at 1 h

Return reported concentration at 1 h; argument: `Oc1ccc2c(c1)CC[C@H](c1ccccc1)[C@@H]2c1ccc(OCCN2CCCC2)cc1`
4.42 ng/mL

====

Experiment: Plasma levels of lasofoxifene after a single oral dose in healthy postmenopausal women (LC-MS-MS)
Assay type: in vivo, human
Details: female, human, plasma; single oral 10 mg dose, healthy post menopausal women, 480 hours after dosing; read-out: Mean plasma concentration, na Lasofoxifene per ml plasma
measure.name: concentration at 480 h (ng/mL)
Number in ng/mL, nothing else.

Return reported concentration at 480 h; argument: `Oc1ccc2c(c1)CC[C@H](c1ccccc1)[C@@H]2c1ccc(OCCN2CCCC2)cc1`
0.75

====

Assay: Plasma levels of lasofoxifene after a single oral dose in healthy postmenopausal women (LC-MS-MS)
Type: in vivo, human
Settings: female, human, plasma; single oral 10 mg dose, healthy post menopausal women, 408 hours after dosing; read-out: Mean plasma concentration, na Lasofoxifene per ml plasma
measure.name: concentration at 408 h
Answer format reminder: number followed by unit.

Return reported concentration at 408 h; argument: `Oc1ccc2c(c1)CC[C@H](c1ccccc1)[C@@H]2c1ccc(OCCN2CCCC2)cc1`
1.05 ng/mL

====

Test: Plasma levels of lasofoxifene after a single oral dose in healthy postmenopausal women (LC-MS-MS)
Assay type: in vivo, human
Settings: female, human, plasma; single oral dose 0.8 mg, healthy post menopausal women, 168 hours after dosing; read-out: Mean plasma concentration, ng Lasofoxifene per ml plasma
measure.name: concentration at 168 h

Return reported concentration at 168 h; argument: Oc1ccc2c(c1)CC[C@H](c1ccccc1)[C@@H]2c1ccc(OCCN2CCCC2)cc1 [lasofoxifene]
0.34 ng/mL

====

Assay: Plasma levels of lasofoxifene after a single oral dose in healthy postmenopausal women (LC-MS-MS)
Assay type: in vivo, human
Conditions: female, human, plasma; single oral dose 0.8 mg, healthy post menopausal women, 120 hours after dosing; read-out: Mean plasma concentration, ng Lasofoxifene per ml plasma
measure.name: concentration at 120 h (ng/mL)
Number in ng/mL, nothing else.

Return reported concentration at 120 h; argument: `Oc1ccc2c(c1)CC[C@H](c1ccccc1)[C@@H]2c1ccc(OCCN2CCCC2)cc1`
0.4

====

Assay: Plasma levels of lasofoxifene after a single oral dose in healthy postmenopausal women (LC-MS-MS)
Type: in vivo, human
Conditions: female, human, plasma; single oral 10 mg dose, healthy post menopausal women, 264 hours after dosing; read-out: Mean plasma concentration, na Lasofoxifene per ml plasma
measure.name: concentration at 264 h
Answer format reminder: number followed by unit.

Return reported concentration at 264 h; argument: `Oc1ccc2c(c1)CC[C@H](c1ccccc1)[C@@H]2c1ccc(OCCN2CCCC2)cc1`
2.27 ng/mL

====

Test: Plasma levels of lasofoxifene after a single oral dose in healthy postmenopausal women (LC-MS-MS)
Format: in vivo, human
Details: female, human, plasma; single oral 10 mg dose, healthy post menopausal women, 672 hours after dosing; read-out: Mean plasma concentration, na Lasofoxifene per ml plasma
measure.name: concentration at 672 h (ng/mL)
Number in ng/mL, nothing else.

Return reported concentration at 672 h; argument: `Oc1ccc2c(c1)CC[C@H](c1ccccc1)[C@@H]2c1ccc(OCCN2CCCC2)cc1`
0.31

====

Assay: Plasma levels of lasofoxifene after a single oral dose in healthy postmenopausal women (LC-MS-MS)
Format: in vivo, human
Details: female, human, plasma; single oral 10 mg dose, healthy post menopausal women, 12 hours after dosing; read-out: Mean plasma concentration, na Lasofoxifene per ml plasma
measure.name: concentration at 12 h (ng/mL)
Number in ng/mL, nothing else.

Return reported concentration at 12 h; argument: Oc1ccc2c(c1)CC[C@H](c1ccccc1)[C@@H]2c1ccc(OCCN2CCCC2)cc1 [lasofoxifene]
10.2

====

Experiment: Plasma levels of lasofoxifene after a single oral dose in healthy postmenopausal women (LC-MS-MS)
Format: in vivo, human
Details: female, human, plasma; single oral dose 0.8 mg, healthy post menopausal women, 1 hour after dosing; read-out: Mean plasma concentration, ng Lasofoxifene per ml plasma
measure.name: concentration at 1 h (ng/mL)
Number in ng/mL, nothing else.

Return reported concentration at 1 h; argument: Oc1ccc2c(c1)CC[C@H](c1ccccc1)[C@@H]2c1ccc(OCCN2CCCC2)cc1 [lasofoxifene]
0.32

====

Test: Plasma levels of lasofoxifene after a single oral dose in healthy postmenopausal women (LC-MS-MS)
Type: in vivo, human
Settings: female, human, plasma; single oral 10 mg dose, healthy post menopausal women, 168 hours after dosing; read-out: Mean plasma concentration, na Lasofoxifene per ml plasma
measure.name: concentration at 168 h (ng/mL)
Number in ng/mL, nothing else.

Return reported concentration at 168 h; argument: Oc1ccc2c(c1)CC[C@H](c1ccccc1)[C@@H]2c1ccc(OCCN2CCCC2)cc1 [lasofoxifene]
3.74

====

Experiment: Plasma levels of lasofoxifene after a single oral dose in healthy postmenopausal women (LC-MS-MS)
Assay type: in vivo, human
Conditions: female, human, plasma; single oral dose 0.8 mg, healthy post menopausal women, 4 hours after dosing; read-out: Mean plasma concentration, ng Lasofoxifene per ml plasma
measure.name: concentration at 4 h (ng/mL)
Number in ng/mL, nothing else.

Return reported concentration at 4 h; argument: `Oc1ccc2c(c1)CC[C@H](c1ccccc1)[C@@H]2c1ccc(OCCN2CCCC2)cc1`
0.46

====

Assay: Plasma levels of lasofoxifene after a single oral dose in healthy postmenopausal women (LC-MS-MS)
Assay type: in vivo, human
Details: female, human, plasma; single oral 10 mg dose, healthy post menopausal women, 120 hours after dosing; read-out: Mean plasma concentration, na Lasofoxifene per ml plasma
measure.name: concentration at 120 h

Return reported concentration at 120 h; argument: Oc1ccc2c(c1)CC[C@H](c1ccccc1)[C@@H]2c1ccc(OCCN2CCCC2)cc1 [lasofoxifene]
4.56 ng/mL

====

Experiment: Plasma levels of lasofoxifene after a single oral dose in healthy postmenopausal women (LC-MS-MS)
Assay type: in vivo, human
Conditions: female, human, plasma; single oral dose 0.8 mg, healthy post menopausal women, 48 hours after dosing; read-out: Mean plasma concentration, ng Lasofoxifene per ml plasma
Description: A dose of 0.8 mg of lasofoxifene was administered to 12 healthy, postmenopausal women and blood samples were analyzed periodically as shown in Table 1. A 1.0 ml sample of human plasma was analyzed for lasofoxifene according to CEDRA's Procedure TM-234 (CEDRA's address). Internal standard used for this procedure was a pentadeuterated lasofoxifene. […] Peak areas of the m/z 414→97.9 daughter ion of lasofoxifene were measured against the peak areas of the mlz 419→97.9 daughter of the internal standard. […]
measure.name: concentration at 48 h (ng/mL)
Number in ng/mL, nothing else.

Return reported concentration at 48 h; argument: `Oc1ccc2c(c1)CC[C@H](c1ccccc1)[C@@H]2c1ccc(OCCN2CCCC2)cc1`
0.56

====

Test: Plasma levels of lasofoxifene after a single oral dose in healthy postmenopausal women (LC-MS-MS)
Type: in vivo, human
Details: female, human, plasma; single oral 10 mg dose, healthy post menopausal women, 216 hours after dosing; read-out: Mean plasma concentration, na Lasofoxifene per ml plasma
measure.name: concentration at 216 h (ng/mL)
Number in ng/mL, nothing else.

Return reported concentration at 216 h; argument: `Oc1ccc2c(c1)CC[C@H](c1ccccc1)[C@@H]2c1ccc(OCCN2CCCC2)cc1`
2.88

====

Experiment: Plasma levels of lasofoxifene after a single oral dose in healthy postmenopausal women (LC-MS-MS)
Format: in vivo, human
Conditions: female, human, plasma; single oral dose 0.8 mg, healthy post menopausal women, 8 hours after dosing; read-out: Mean plasma concentration, ng Lasofoxifene per ml plasma
measure.name: concentration at 8 h
Answer format reminder: number followed by unit.

Return reported concentration at 8 h; argument: `Oc1ccc2c(c1)CC[C@H](c1ccccc1)[C@@H]2c1ccc(OCCN2CCCC2)cc1`
0.72 ng/mL
